# Assay summary: Elimination half life in CD1 mouse plasma at 5 mg/kg, ip after 1 hr by LC-MS/MS system
# Format: ADME, organism-based
# Parameters: dose 5 mg/kg, route intraperitoneal
# Assay context: read-out: beta t1/2 (converted)
Measured attribute: half-life
Put your answer as a value accompanied by its unit after it.

Look at this compound and give its reported half-life. C[C@H](Nc1nc(-c2cnccn2)nc(Cl)c1-c1c(F)cc(F)cc1F)C(F)(F)F
15 h

###

Answer each item with its documented log10(concentration at 1 h).
# Assay summary: Drug level in CD1 mouse brain at 5 mg/kg, ip after 1 hr by LC-MS/MS system
# Type: ADME, organism-based
# Set-up: dose 5 mg/kg, route intraperitoneal
# Assay context: read-out: Drug uptake
Base-10 log of concentration at 1 h, unit nM.

Entry under review: C[C@H](Nc1c(-c2c(F)cc(OCCCCl)cc2F)c(Cl)nc2ncnn12)C(F)(F)F . Reported log10(concentration at 1 h)?
2.20

Give measured log10(concentration at 1 h) for every item shown.
1. C[C@H](Nc1c(-c2c(F)cc(OCCCN)cc2F)c(Cl)nc2ncnn12)C(F)(F)F
2. C[C@H](Nc1c(-c2c(F)cc(OCCCNc3ccccc3)cc2F)c(Cl)nc2ncnn12)C(F)(F)F
3. C[C@H](Nc1c(-c2c(F)cc(OCCCN3CCOCC3)cc2F)c(Cl)nc2ncnn12)C(F)(F)F
4. C[C@H](Nc1c(-c2c(F)cc(OCCCNC(=O)C(C)(C)C)cc2F)c(Cl)nc2ncnn12)C(F)(F)F

1: 1.60; 2: 2.08; 3: 2.78; 4: 2.23

###

# Assay summary: Drug level in CD1 mouse plasma at 5 mg/kg, ip after 1 hr by LC-MS/MS system
# Assay type: ADME, organism-based
# Set-up: dose 5 mg/kg, route intraperitoneal
So basically: is concentration at 1 h under 200 nM? Then yes (1). Not under? Then no (0).

Does the reported concentration at 1 h of C[C@H](Nc1c(-c2c(F)cc(OCCCNC(=O)C(C)(C)C)cc2F)c(Cl)nc2ncnn12)C(F)(F)F stay below 200 nM?
no (0)

Lab log: compare recorded concentration at 1 h with 200 nM; is it strictly lower for C[C@H](Nc1c(-c2c(F)cc(OCCCN(C)C)cc2F)c(Cl)nc2ncnn12)C(F)(F)F ?
no (0)

Problem: For the compound C[C@H](Nc1c(-c2c(F)cc(OCCCNc3ccccc3)cc2F)c(Cl)nc2ncnn12)C(F)(F)F , is concentration at 1 h under 200 nM?
yes (1)

For C[C@H](Nc1c(-c2c(F)cc(F)cc2F)c(Cl)nc2ncnn12)C(F)(F)F , is the recorded concentration at 1 h below the cut-off of 200 nM?
no (0)

# check: concentration at 1 h < 200 nM for C[C@H](Nc1nc(-c2ccccn2)nc(Cl)c1-c1c(F)cc(F)cc1F)C(F)(F)F
no (0)

Item C[C@H](Nc1c(-c2c(F)cc(OCCCN)cc2F)c(Cl)nc2ncnn12)C(F)(F)F : concentration at 1 h beneath 200 nM, strictly?
no (0)

Is 200 nM strictly greater than the compound's reported concentration at 1 h? compound: C[C@H](Nc1nc(-c2cnccn2)nc(Cl)c1-c1c(F)cc(F)cc1F)C(F)(F)F
no (0)

Query compound follows.
Does this compound meet the criterion concentration at 1 h < 200 nM? C[C@H](Nc1c(-c2c(F)cc(OCCCNCC(F)(F)F)cc2F)c(Cl)nc2ncnn12)C(F)(F)F
yes (1)

###

# Target: ATP-dependent translocase ABCB1 (Homo sapiens)
# Sequence (P08183 whole entry): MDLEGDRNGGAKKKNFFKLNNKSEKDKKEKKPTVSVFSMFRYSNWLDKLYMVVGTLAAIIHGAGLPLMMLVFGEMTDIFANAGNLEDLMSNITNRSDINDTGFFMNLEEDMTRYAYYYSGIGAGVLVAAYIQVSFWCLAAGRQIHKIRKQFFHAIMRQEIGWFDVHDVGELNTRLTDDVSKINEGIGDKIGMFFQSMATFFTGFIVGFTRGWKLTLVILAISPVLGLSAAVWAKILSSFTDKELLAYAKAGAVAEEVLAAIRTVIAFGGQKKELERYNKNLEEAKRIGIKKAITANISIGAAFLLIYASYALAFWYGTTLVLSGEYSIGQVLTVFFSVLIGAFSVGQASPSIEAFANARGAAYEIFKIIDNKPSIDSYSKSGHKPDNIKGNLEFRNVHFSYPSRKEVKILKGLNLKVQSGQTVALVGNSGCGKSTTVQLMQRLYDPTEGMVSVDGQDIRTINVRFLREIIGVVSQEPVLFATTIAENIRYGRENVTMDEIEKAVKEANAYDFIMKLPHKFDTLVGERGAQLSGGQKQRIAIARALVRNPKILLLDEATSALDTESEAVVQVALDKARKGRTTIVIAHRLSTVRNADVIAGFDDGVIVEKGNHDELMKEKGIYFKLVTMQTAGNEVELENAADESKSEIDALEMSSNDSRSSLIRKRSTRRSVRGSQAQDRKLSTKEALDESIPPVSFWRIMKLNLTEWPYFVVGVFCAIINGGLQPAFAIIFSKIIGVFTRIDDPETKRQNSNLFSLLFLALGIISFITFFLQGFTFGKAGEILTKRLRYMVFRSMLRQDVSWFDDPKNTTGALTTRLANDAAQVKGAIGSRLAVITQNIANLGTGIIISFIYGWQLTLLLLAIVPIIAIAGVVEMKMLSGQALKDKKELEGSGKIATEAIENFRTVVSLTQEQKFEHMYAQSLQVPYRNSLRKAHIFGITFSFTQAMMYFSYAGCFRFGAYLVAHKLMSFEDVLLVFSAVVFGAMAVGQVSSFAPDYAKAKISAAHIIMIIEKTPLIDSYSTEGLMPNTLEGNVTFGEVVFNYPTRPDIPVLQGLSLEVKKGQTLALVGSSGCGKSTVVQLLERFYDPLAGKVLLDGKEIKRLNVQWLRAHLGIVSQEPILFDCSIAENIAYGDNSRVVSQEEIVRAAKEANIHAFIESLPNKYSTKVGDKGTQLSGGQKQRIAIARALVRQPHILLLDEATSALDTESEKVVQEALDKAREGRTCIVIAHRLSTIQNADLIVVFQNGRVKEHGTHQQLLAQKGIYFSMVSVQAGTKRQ
# Assay summary: Inhibition of human P-glycoprotein expressed in NCI/ADR-RES cells assessed as reduction of calcein-AM transport after 20 mins by fluorescence assay
# Assay type: cell-based
Measured attribute: inhibition (INH)

Entry under review: C/C1=C/C[C@@H](/C(C)=C/c2csc(C)n2)OC(=O)C[C@H](O)C(C)(C)C(=O)[C@H](C)[C@@H](O)[C@@H](C)CCC1 . Reported inhibition (INH)?
Active

Reported inhibition (INH), molecule C[C@H](Nc1c(-c2c(F)cc(OCCCN(C)C)cc2F)c(Cl)nc2ncnn12)C(F)(F)F : ____
Not Active

Give the measured inhibition (INH) of COc1ccc(CCN(C)CCCC(C#N)(c2ccc(OC)c(OC)c2)C(C)C)cc1OC (stereo not given) .
Active

Could you share which inhibition (INH) value was measured for C[C@H](Nc1nc(-c2cnccn2)nc(Cl)c1-c1c(F)cc(F)cc1F)C(F)(F)F ?
Not Active

Next:
What does the record list as inhibition (INH) for CNCCCOc1cc(F)c(-c2c(Cl)nc3ncnn3c2N[C@@H](C)C(F)(F)F)c(F)c1 ?
Not Active

###

# Assay summary: Ratio of drug level in brain to plasma in CD1 mouse at 5 mg/kg, ip after 1 hr by LC-MS/MS system
Classes are defined on BPR with ranges bottom end: < 0.3; midrange: ≥ 0.3 and < 0.9; top end: ≥ 0.9

Illustrative cases are given below, each with its answer.
Which BPR band matches C[C@H](Nc1c(-c2c(F)cc(F)cc2F)c(Cl)nc2ncnn12)C(F)(F)F ?
midrange

Sort C[C@H](Nc1c(-c2c(F)cc(OCCCNc3ccccc3)cc2F)c(Cl)nc2ncnn12)C(F)(F)F into one of the categories.
top end

For C[C@H](Nc1c(-c2c(F)cc(OCCCNCC(F)(F)F)cc2F)c(Cl)nc2ncnn12)C(F)(F)F , which BPR bin applies?
top end

Lab note: which band did C[C@H](Nc1c(-c2c(F)cc(OCCCO)cc2F)c(Cl)nc2ncnn12)C(F)(F)F land in?
top end

Lab note: which band did CNCCCOc1cc(F)c(-c2c(Cl)nc3ncnn3c2N[C@@H](C)C(F)(F)F)c(F)c1 [CEVIPABULIN] land in?
bottom end

---
# bin lookup: classify C[C@H](Nc1c(-c2c(F)cc(OCCCN3CCOCC3)cc2F)c(Cl)nc2ncnn12)C(F)(F)F by its BPR
midrange

Form: Item = C[C@H](Nc1c(-c2c(F)cc(OCCCN)cc2F)c(Cl)nc2ncnn12)C(F)(F)F ; Class = ?
bottom end

Which of the defined bands does the recorded BPR of C[C@H](Nc1nc(-c2cnccn2)nc(Cl)c1-c1c(F)cc(OCCCN(C)C)cc1F)C(F)(F)F sit within?
midrange

Please classify: CC(=O)N(C)CCCOc1cc(F)c(-c2c(Cl)nc3ncnn3c2N[C@@H](C)C(F)(F)F)c(F)c1
bottom end
